Each entry below lists one item and its recorded soluble fraction (log2) value.
- assay.remarks: soluble fraction after stress (log2 fold change); higher = more stays soluble; pooled small domains, quantitative proteomics;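 further: 20 min heating vs room temperature control held 20 min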
- recorded.conditions: stress: 75 degC
The answer should be written as a number, with no unit following it.

Past entries and their recorded results:
| sequence.chain | recorded.metric | numeric.value |
| --- | --- | --- |
| HMSQQEAQLNSLVKIYESMKPKDAARIFDTLDMDVLLDVVMRMKEARSAAVLAEMTPDRAKEVTLQLAD | soluble fraction (log2) | -0.912 |
| HMKEQLLLGFKVRSLRGIDLGFVKFIEGSAFQSFLKTDLTIIPNVPNYVKKIDNVKKIILVDWESD | soluble fraction (log2) | -2.8 |
| HMRGRFGNAAPARNLGDHPQGGAINVKAGRYGPYVSWGKVNATLPKDSDPEKVTLEEAVALIAAKQSGQG | soluble fraction (log2) | -0.111 |
| HMNDRERIGKRIAQLRMEAGISQYKLAELTGLAPGNIARIETGKYSTGIDILSKIGDALGYQLDFI | soluble fraction (log2) | -2.14 |
| HMGSKKAIPYVSGMSETEAQNELEEAGFKVTSSFQYDDSVESGKVISTTPEAGTKAEKGSTVTMLVSQGSN | soluble fraction (log2) | 0.0103 |

Task item: Item HMIQIQDIAFSEFLQELDKGNIVEVNIKGDLINGDLINGKKFKTVAPYDPNLVEKLSKQNVRINVEPIN has what recorded soluble fraction (log2)?
Reply: 0.157

Task item: Item HMKHYIDFIAEQLKTLTAIPSPSGYTKNATDYLMKLLQDMGYEPKLSRKGNVFVTLGGDGEPLVLAAHVD has what recorded soluble fraction (log2)?
Reply: 0.112

Task item: Item HMKMTIEDLITQAKESNAAENYYEAFQLYSKAIDVLPNDPDLYSARGVVLFHLDRKEDSLIDMNKSVD has what recorded soluble fraction (log2)?
Reply: -0.17

Task item: Item HMNEDYSSMVGKTGFALTILRPAGKIMIEEEVFDAVAINGYISKGQEVEVVRYENAQLYVKVK has what recorded soluble fraction (log2)?
Reply: -1.04
